Experiment description: chemical genetic growth profiling, strain panel (AID 1159580);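 note: tested at 20 µM; growth read once vehicle control cultures reached saturation at 30 °C; 1 = growth at the plate median or of vehicle wells; lower values mean less growth of the strain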
Recorded conditions: S. cerevisiae deletion strains, growth OD, locus YPL204W, strain HRR25, active compounds read low
About 2,000 (36%) of roughly 5,500 compounds were called active. Inconclusive results (about 18%) are left out. The list shows a part of the results.
Rule: normalized growth below 0.9 gives YES, anything at or above gives NO.

Solved cases below.
• N#Cc1ccc(Oc2sccc2[N+](=O)[O-])cc1 = YES
• CC(C)(C)C1=C(C#N)C(c2c(Cl)cccc2Cl)C(C#N)=C(N)O1 (stereo unspecified) = NO
• Cc1ccc(NC(=S)C(C#N)C(=O)N2CCOCC2)c(C)c1 (stereo unspecified) = NO

# input Report whether reported normalized growth is lower than 0.9 (strictly) for Clc1cccc(Nc2ncc(-c3ccc4c(c3)OCCCO4)s2)c1
# output YES

# input Report whether reported normalized growth is lower than 0.9 (strictly) for Cc1c(S(=O)(=O)Nc2cccc([N+](=O)[O-])c2)sc2ccc(Cl)cc12
# output NO

# input Report whether reported normalized growth is lower than 0.9 (strictly) for O=[N+]([O-])c1ccsc1Oc1cccc(C(F)(F)F)c1
# output YES

# input Report whether reported normalized growth is lower than 0.9 (strictly) for O=C(NNc1ccccc1)c1cc(-c2ccc(Cl)cc2)oc1C(F)(F)F
# output YES

# input Report whether reported normalized growth is lower than 0.9 (strictly) for CC1CCC(C(C)C)C(N(Cc2ccccc2)C(=O)c2ccccc2)C1 (stereo unspecified)
# output NO

# input Report whether reported normalized growth is lower than 0.9 (strictly) for Cn1nccc1-c1cc(Cl)cc(Cl)c1O
# output YES

# input Report whether reported normalized growth is lower than 0.9 (strictly) for Clc1ccc(-c2cnc(Nc3cc(Cl)cc(Cl)c3)s2)cc1
# output YES

----------
normalized growth listing for selected molecules.
Experiment description: chemical genetic growth profiling, strain panel (AID 1159580);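 note: tested at 20 µM; growth read once vehicle control cultures reached saturation at 30 °C; 1 = growth at the plate median or of vehicle wells; lower values mean less growth of the strain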
Recorded conditions: S. cerevisiae deletion strains, growth OD, locus YBR279W, strain paf1, active compounds read low
The campaign covered roughly 5,500 compounds. About 2,000 (36%) were called active. Another 18% or so got no clear call; they are omitted. The list shows a part of the results.
# respond with the number and nothing more

Reference set, count: 4
- CC(=O)C1CC[C@H]2C3CC[C@H]4C[C@H](O)CC[C@]4(C)C3CC[C@]12C (some centres undefined): 0.987
- CC(=O)C1CCC2C3CCC4C[C@H](O)CCC4(C)C3C[C@H](O)C12C (some centres undefined): 0.98
- CCN1C[C@@]2(COC)C3[C@@H](OC)[C@H]4[C@@H]1[C@]3(C(OC)C[C@H]2O)C1C[C@@]2(O)[C@H](OC(=O)c3ccccc3)C1[C@]4(OC(C)=O)[C@@H](O)[C@@H]2OC (some centres undefined): 1.02
- COc1cc(NS(C)(=O)=O)ccc1Cc1c2ccccc2nc2ccccc12: 0.988

# input Return normalized growth for the following molecule: NC(N)=NCCN1CCCCCCC1
# output 1.02

# input Return normalized growth for the following molecule: Cc1nnc(NS(=O)(=O)c2ccc(N)cc2)s1
# output 1

# input Return normalized growth for the following molecule: CC1[C@H](C)OC(=O)CC(O)CC(O)CC(O)CCC(O)C(O)C[C@]2(O)CC(O)C(C(=O)O)C(CC(OC3O[C@H](C)[C@@H](O)[C@H](N)[C@@H]3O)/C=C/C=C/C=C/C=C/CC/C=C/C=C/[C@H](C)[C@H]1O)O2 (some centres undefined)
# output 0.982

# input Return normalized growth for the following molecule: NCCCCCC(=O)O
# output 0.996

# input Return normalized growth for the following molecule: Fc1ccc([C@@H]2CCNC[C@H]2COc2ccc3c(c2)OCO3)cc1
# output 1

# input Return normalized growth for the following molecule: CC1C/C=C/C=C/C=C/C=C/C(O[C@@H]2O[C@H](C)[C@@H](O)[C@H](N)[C@@H]2O)CC2OC(O)(CC(O)CC3OC3/C=C/C(=O)O1)CC(O)C2C(=O)O (some centres undefined)
# output 1

# input Return normalized growth for the following molecule: C=C1C(=O)[C@]23[C@H](O)[C@H]1CC[C@H]2[C@@]12CO[C@]3(O)[C@H](O)[C@@H]1C(C)(C)CC[C@@H]2O
# output 1

# input Return normalized growth for the following molecule: COC(=O)/C(C)=C\CC12OC(C)(C)C3CC(C=C4C(=O)c5c(OC)c6c(c(CC=C(C)C)c5OC431)OC(C)(CCC=C(C)C)C=C6)C2=O (centres undefined)
# output 1.01

# input Return normalized growth for the following molecule: CC(C)=CC1C(C(=O)OCc2cccc(Oc3ccccc3)c2)C1(C)C (centres undefined)
# output 1

# input Return normalized growth for the following molecule: CCCCCCCCCCCCCC(=O)OC1C(C)C2(O)C(C=C(CO)CC3(O)C(=O)C(C)=CC32)C2C(C)(C)C12OC(C)=O (centres undefined)
# output 0.988

# input Return normalized growth for the following molecule: CC(=O)O[C@H]1C[C@@]2(C)[C@@H](C[C@@H](O)C3[C@]2(C)CC[C@H]2[C@H](C)[C@H](O)CC[C@]32C)/C1=C(/CCC=C(C)C)C(=O)O (some centres undefined)
# output 1.03

# input Return normalized growth for the following molecule: CC1OC(O[C@H]2/C=C/C=C/C=C/C=C/C=C/C=C/C=C/[C@H](C)[C@@H](O)[C@@H](C)[C@H](C)OC(=O)CC(O)CC(O)CCC(O)C(O)CC(O)C[C@]3(O)C[C@H](O)C(C(=O)O)C(C2)O3)C(O)[C@H](N)C1O (some centres undefined)
# output 0.984

# input Return normalized growth for the following molecule: Oc1c(Cl)cc(Cl)c(Cl)c1Cc1c(O)c(Cl)cc(Cl)c1Cl
# output 0.0633
